- System under test: T1, recombinant YFV E protein (soluble E, sE; YFV Asibi strain) (Yellow fever virus, Asibi strain, UniProt Q6DV88 286-678)
- T1 construct: also called YFV E antigen; YFV E monomer
- T1 sequence (Q6DV88 286-678): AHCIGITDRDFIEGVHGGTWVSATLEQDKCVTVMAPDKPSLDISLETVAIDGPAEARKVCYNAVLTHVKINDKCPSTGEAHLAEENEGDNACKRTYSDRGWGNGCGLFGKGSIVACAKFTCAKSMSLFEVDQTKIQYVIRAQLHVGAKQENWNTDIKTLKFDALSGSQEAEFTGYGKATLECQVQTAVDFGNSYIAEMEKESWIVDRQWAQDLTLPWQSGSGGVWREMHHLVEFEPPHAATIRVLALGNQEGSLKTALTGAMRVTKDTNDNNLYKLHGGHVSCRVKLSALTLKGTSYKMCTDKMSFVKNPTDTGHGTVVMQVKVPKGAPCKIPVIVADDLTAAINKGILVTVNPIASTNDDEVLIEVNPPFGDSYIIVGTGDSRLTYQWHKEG
- Assay text: BLI monovalent (IgG on tip)
// classify(record): look up Kd in ranges small value = under 2 nM, mid value = from 2 nM up to 20 nM, large value = 20 nM and over

Ask | For this binder, which bin applies? ADI-48910 (antibody, V domains shown, full-length IgG; also called Antibody Number 94) VH: EVQLVQSGGGLVQRGGSLRLSCAASGFTFSSYAMTWVRQAPGKGLEWVSDMNHSGDRTNYADSVRGRFTISRDNSKNTLYLQMNSLRAEDTAVYYCAKYYDSSGYYYFHSWGQGTLVTVSS VL: DIRLTQSPSTLSASVGDRVSITCRASQSISDWLAWYQQKPGKAPKLLIYRASGLETGVPSRFSGSGSGTEFTLTISSLQPDDFATYYCQQYNRYPYTFGQGTKVDIK
Reply | mid value

Ask | For this binder, which bin applies? ADI-50211 (antibody, V domains shown, full-length IgG; also called Antibody Number 62) VH: EVQLVESGGGLVQPGGSLRLSCAASGFTFSAYAMSWVRQAPGRGLEWVSAISGSDRRIYYADSVKGRFSISRDNSKNTLYLQMSSLRAEDTAVYYCAKYYDSSGYYYLDYWGQGTLVTVSS VL: DIQLTQSPSTLSASVGDRVTITCRASQSVSSWLAWYQQKPGKAPRLLIYRASSLESGVPSRFSGSGSGTEFTLTISSLQPDDFAAYYCQQYNRDPYTFGQGTKVEIK
Reply | large value

Ask | For this binder, which bin applies? ADI-49162 (antibody, V domains shown, full-length IgG; also called Antibody Number 83) VH: EVQLVESGGTFLQPGGSLRLSCVASGFTFGTHAMSWVRQAPGKGLEWVSTFSGSGGRTYYADSVKGRFTISRDNSKSTLYLEMSALRAEDTAVYYCAKFYDSSGYYYFDYWGQGTLVTVSS VL: DIQLTQSPSTLSASVGDRVTVTCRASQNVGGWLAWYQQKPGKAPKLLIFQASRLENGVPSRFSANASGTEFTLTIGSLQPDDFATYYCQQYNTYPYTFGQGTKVDIK
Reply | mid value

Ask | For this binder, which bin applies? ADI-45123 (antibody, V domains shown, full-length IgG) VH: EVQLLESGGGLVQPGGSLRLSCAASGFIFSNYWMSWVRQAPGKGLEWVANIKPDGSEKYYVESVRGRFTISRDNAKNSLYLQMNSLRAEDTAVFYCARDGGTVSDGLDVWGQGTTVTVSS VL: DIRVTQSPSSLSASVGDRVTISCRASESISIYLNWYQQKPGKAPNLLIYAASSLQRGVPSRFSGSGSGTDFTLTITSLQAEDFATYYCQQTFSIWTFGQGTKVEIK
Reply | mid value

Ask | For this binder, which bin applies? ADI-45097 (antibody, V domains shown, full-length IgG; also called Antibody Number 5) VH: EVQLVESGGGVVQPGRSLRLSCAASGFTFNSHGMHWVRQAPGKGLEWVAVISYDGTKKYFADSVKGRFTISRDNSKNTLYLQMSSLRADDTAVYYCAKDSSTSWYQVVYHIDYWGQGTLVTVSS VL: QSVVTQPPSVSAAPGQKVTISCSGSSSNIGNNYVAWYQQLPGRAPKLLIHDNKKRPSGIPDRFSGSASGTSATLGITGLQTGDEADYYCETWDSSLNAVVFGGGTKLTVL
Reply | small value

Ask | For this binder, which bin applies? ADI-48899 (antibody, V domains shown, full-length IgG; also called Antibody Number 68) VH: EVQLVESGGGLVQPGGSLRLSCAASGFIYTNYAMYWVRQAPGKGLEWVSAISGSGGITYYADSVKGRFTISRDNSKNTLYLQMNSLRAEDKAVYYCAKDGVTTINGWFHFEYWGQGTLVTVSS VL: DIQMTQSPSTLSASVGDRVTITCRASQSISSWLAWYQQKPGKAPKLLIYQASSLESGVPSRFSGSESGTEFTLTISSLQPDDFATYYCQQYNSFPFTFGPGTKVEIK
Reply | large value

Ask | For this binder, which bin applies? ADI-42231 (antibody, V domains shown, full-length IgG; also called Antibody Number 64) VH: QVQLVQSGAEVKKPGASVKVSCKASGYSFTTYGISWVRQAPGQGLEWMGWISGYSGDTNYAQKVQGRVTMTTDTSTSTAYMELRSLRSDDTAVYYCARDQSHGTFGGVIDSTTLFYYYGMDVWGQGTTVTVSS VL: DIVMTQSPATLSLSPGERATLSCRASQSVSSYLAWYQQKPGQAPRLLIYDASNRATGIPARFSGSGSGTDFTLTISSLEPEDFAVYYCQQRSNWPSFGQGTKLEIK
Reply | large value

Ask | For this binder, which bin applies? ADI-42199 (antibody, V domains shown, full-length IgG; also called Antibody Number 63) VH: EVQLVESGGGLVQPGGSLRLSCAASGFTFSDHYMAWVRQAPGKGLEWVGRIRNKPNSYTTEYAASVKGRFTISRHDSENSLYLQMNSLKTEDTAVYYCCRESGEGFDPWGQGTLVTVSS VL: SYELTQLPSVSVSPGQTARVTCSGDALQYVYWYQQKPGQAPVVVIYKDTERPSGIPERFSGSSSGTTVTLTITGVQAEDEADYYCQSADRSGSVIFGGGTKVTVL
Reply | small value

Ask | For this binder, which bin applies? ADI-42223 (antibody, V domains shown, full-length IgG; also called Antibody Number 84) VH: EVQLVESGGGLVQPGGSLRLSCAASGFTFSDYYMDWVRQAPGKGLEWVGGIRNKPNSYTTEYAASVKGRFTISRDDSKNSLFLQMNSLKTEDTAVYYCVRLYGDYVAYFDYWGQGTLVTVSS VL: DIQLTQSPSSLSASVGDRVTITCRASQSISQYLNWYQQKPGKAPKLLISPASSFQSGVPSRFSGSGSGTDFTLTITSLQPEDFATYYCQQSYSTPWTFGQGTKVDIK
Reply | small value

Ask | For this binder, which bin applies? ADI-50200 (antibody, V domains shown, full-length IgG) VH: EVQLLESGGDLVQPGRSLRLSCAASGFNLIDYAMHWVRQVPGKGLEWVSGISWNSRSIGYADSVKGRFTISRDNAKNSLYLQMDSLKHEDTALFYCAKGAAAGPFPYFYYAMDVWGQGTTVTVSS VL: DIQVTQSPSSLSASVGDRVTITCRASQGISNNLAWYQQKPGIFPKLLIYAASTLQSGVPSRFSGSGSGTDFILTISSLQPEDVATYYCQKYQSAPPTFGGGTKLEIK
Reply | large value

Source of measurements: patent US20240218054A1
